Cited source for all entries: PubChem BioAssay (Tox21)

- TEST: qHTS assay for identifying genotoxic compounds that show differential cytotoxicity against isogenic chicken DT40 cell lines with known DNA damage response pathways - Rev3 mutant cell line (AID 743014); also: nearly all actives have a fitted effect of over 55% in size
- CONDITIONS_USED: chicken DT40 Rev3-/- viability, CellTiter-Glo, 40 h; series mostly up to 68.4 µM
Inconclusive results are not listed. Calls of active or inactive are those of the source. Calls follow the shape of the dose curve; as a rule, active = well fitted cell-killing curve with a large enough effect in the repeat runs; inconclusive = weak or mixed curves, or effect the other way; inactive = no such curve, though single readings can be large or run the other way.
Answer with one of the outcomes given here: Y (active), N (inactive)

Field: outcome | Entry: CC(=O)Nc1ccc(OC(C)=O)cc1 N

Field: outcome | Entry: NCCO/C=C/[C@H](N)C(=O)O N

Field: outcome | Entry: CO/N=C(\C(=O)N[C@@H]1C(=O)N2C(C(=O)[O-])=C(C[n+]3ccc(N)n3CCO)CS[C@H]12)c1csc(N)n1 N

Field: outcome | Entry: O=C1[O][Bi][O]c2ccccc21 N

Field: outcome | Entry: NC(=O)c1cc[n+](CC2=C(C(=O)O)N3C(=O)[C@@H](NC(=O)C(c4ccccc4)S(=O)(=O)[O-])[C@H]3SC2)cc1 (some centres undefined) N

Field: outcome | Entry: CC12CCC(C[N+](C)(CCC[N+](C)(C)C)C1)C2(C)C (centres undefined) N

Field: outcome | Entry: C[C@@H]1C(=O)NC2=Nc3cccc(Cl)c3CN21 N

Field: outcome | Entry: CCC[C@@H]1C[C@@H](C(=O)N[C@@H]([C@H]2O[C@H](SC)[C@H](OP(=O)(O)O)[C@@H](O)[C@H]2O)[C@H](C)Cl)N(C)C1 N

Field: outcome | Entry: CCc1cn([C@H]2C[C@H](O)[C@@H](CO)O2)c(=O)[nH]c1=O N

Field: outcome | Entry: CCCCCCCCOC(=O)c1cc(O)c(O)c(O)c1 Y

Field: outcome | Entry: NC(N)=NCC1COC2(CCCCC2)O1 (centres undefined) N

Field: outcome | Entry: CC/C(=C(/CC)c1ccc(OP(=O)(O)O)cc1)c1ccc(OP(=O)(O)O)cc1 N

Field: outcome | Entry: CC(=NCc1ccccc1)c1ccccc1O N

Field: outcome | Entry: CC(=O)OCC1=C(C(=O)O)N2C(=O)[C@@H](NC(=O)Cc3ccccc3)[C@H]2SC1 N

Field: outcome | Entry: Cc1cc(=O)c(C(=O)N[C@@H](C(=O)N[C@@H]2C(=O)N3C(C(=O)O)=C(CSc4nnnn4C)CS[C@H]23)c2ccc(O)cc2)c[nH]1 N

Field: outcome | Entry: c1ccc2cc3c4ccccc4c4ccccc4c3cc2c1 N

Field: outcome | Entry: C[C@H]1O[C@@H](O[C@H]2CC[C@@]3(C)[C@H](CC[C@@H]4[C@@H]3C[C@@H](O)[C@]3(C)[C@@H](C5=CC(=O)OC5)CC[C@]43O)C2)C[C@H](O)[C@@H]1O[C@H]1C[C@H](O)[C@H](O[C@H]2C[C@H](O)[C@H](O[C@@H]3O[C@H](CO)[C@@H](O)[C@H](O)[C@H]3O)[C@@H](C)O2)[C@@H](C)O1 Y

Field: outcome | Entry: CCc1ncnc2cc(OC)c(OC)cc12 N

Field: outcome | Entry: CCCCCCCCCCCCCCCCC(C(=O)O)C(O)(CC(=O)O)C(=O)O (centres undefined) N

----------
- TEST: qHTS assay to identify small molecule antagonists of the sonic hedgehog signaling (Shh) pathway - cell viability counter screen (AID 1259367); also: nearly all actives have a fitted effect of over 55% in size
- CONDITIONS_USED: NIH/3T3 Gli1-Luc viability, CellTiter-Fluor, 24 h; series mostly up to 92.4 µM
Inconclusive results are not listed. The source made the active and inactive calls. Calls come from the whole dose curve; as a rule, active = well fitted cell-killing curve with a large enough effect in the repeat runs; inconclusive = weak or mixed curves, or effect the other way; inactive = no such curve, though single readings can be large or run the other way.
Answer with one of the outcomes given here: active, inactive

Field: outcome | Entry: O=C(Nc1ccc([N+](=O)[O-])cc1)Nc1ccc([N+](=O)[O-])cc1 (tested in a mixture with another compound) inactive

Field: outcome | Entry: COc1cc([C@@H]2c3cc4c(cc3[C@@H](O[C@@H]3O[C@@H]5CO[C@@H](C)O[C@H]5[C@H](O)[C@H]3O)[C@H]3COC(=O)[C@H]23)OCO4)cc(OC)c1O active

Field: outcome | Entry: O=C(NCc1ncc(C(F)(F)F)cc1Cl)c1c(Cl)cccc1Cl inactive

Field: outcome | Entry: Cc1cc(Br)ccc1NC(=O)CCl active

Field: outcome | Entry: O=C1C=CC(=O)N1c1cccc(N2C(=O)C=CC2=O)c1 active

Field: outcome | Entry: NCc1cccc(C2CCN(C(=O)c3ccc(C#Cc4ccccc4F)o3)CC2)c1 active

Field: outcome | Entry: CCc1c(C)cc(N)c(CC)c1N inactive

Field: outcome | Entry: Cc1cc(C)c(O)c(C(C)(C)C)c1 inactive

Field: outcome | Entry: C=CC(=O)O[C@H]1C[C@@H]2CC[C@@]1(C)C2(C)C inactive

Field: outcome | Entry: CC/C(=C(/c1ccc(O)cc1)c1ccc(OCCN(C)C)cc1)c1ccccc1 active
